Ki values for the molecules below.
target: AChE (Homo sapiens); experiment: biochemical; format: biochemical; details: mean ± standard error; Lineweaver-Burk; read-out: K I AChE
Sequence (P22303 32-614): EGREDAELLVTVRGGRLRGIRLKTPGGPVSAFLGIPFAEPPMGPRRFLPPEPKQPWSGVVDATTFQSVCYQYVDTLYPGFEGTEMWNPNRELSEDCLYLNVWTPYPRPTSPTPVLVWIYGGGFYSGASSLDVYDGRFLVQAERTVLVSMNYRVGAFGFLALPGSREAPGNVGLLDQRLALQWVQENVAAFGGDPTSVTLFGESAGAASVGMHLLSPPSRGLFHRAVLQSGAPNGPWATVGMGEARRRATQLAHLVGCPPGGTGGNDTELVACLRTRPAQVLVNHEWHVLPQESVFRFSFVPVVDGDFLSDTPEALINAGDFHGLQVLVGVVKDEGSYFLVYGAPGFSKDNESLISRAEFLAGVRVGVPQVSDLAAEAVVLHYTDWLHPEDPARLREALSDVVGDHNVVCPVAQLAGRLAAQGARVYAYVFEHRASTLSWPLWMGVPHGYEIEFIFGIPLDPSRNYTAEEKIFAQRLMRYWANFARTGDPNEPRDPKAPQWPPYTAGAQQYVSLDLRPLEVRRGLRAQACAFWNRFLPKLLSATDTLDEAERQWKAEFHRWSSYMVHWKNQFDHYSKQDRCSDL
Include the unit after the number when you answer.

Consider the worked cases shown below.
# Molecule, Tested On, Observed Result
records = [
    ("CC1=NN(C(=O)c2cccc(Cl)c2)C(=O)C1/N=N/c1ccc(S(N)(=O)=O)cc1 (stereo not drawn) [1f]", "AChE (Homo sapiens)", "7.45 nM"),
    ("CC1=NN(C(=O)c2ccccc2)C(=O)C1/N=N/c1ccc(S(N)(=O)=O)cc1 (stereo not drawn) [1a]", "AChE (Homo sapiens)", "11.2 nM"),
    ("CC1=NN(C(=O)c2ccc(C)cc2)C(=O)C1/N=N/c1ccc(S(N)(=O)=O)cc1 (stereo not drawn) [1d]", "AChE (Homo sapiens)", "16 nM"),
    ("COc1ccc(C(=O)N2N=C(C)C(/N=N/c3cccc(S(N)(=O)=O)c3)C2=O)cc1 (stereo not drawn) [2e]", "AChE (Homo sapiens)", "13.5 nM"),
    ("CC1=NN(C(=O)c2ccccc2)C(=O)C1/N=N/c1cccc(S(N)(=O)=O)c1 (stereo not drawn) [2a]", "AChE (Homo sapiens)", "10.5 nM"),
]

In the following, a different molecule is considered.
Q: Given the molecule CC1=NN(C(=O)c2ccc(Cl)cc2)C(=O)C1/N=N/c1ccc(S(N)(=O)=O)cc1 (stereo not drawn) [1b] , what is its reported Ki?
Result: 13.3 nM
